# tested on: rat GABAA receptors α1β2γ2 (Rattus norvegicus, UniProt P18508+P62813)
# Sequence (P62813 28-455): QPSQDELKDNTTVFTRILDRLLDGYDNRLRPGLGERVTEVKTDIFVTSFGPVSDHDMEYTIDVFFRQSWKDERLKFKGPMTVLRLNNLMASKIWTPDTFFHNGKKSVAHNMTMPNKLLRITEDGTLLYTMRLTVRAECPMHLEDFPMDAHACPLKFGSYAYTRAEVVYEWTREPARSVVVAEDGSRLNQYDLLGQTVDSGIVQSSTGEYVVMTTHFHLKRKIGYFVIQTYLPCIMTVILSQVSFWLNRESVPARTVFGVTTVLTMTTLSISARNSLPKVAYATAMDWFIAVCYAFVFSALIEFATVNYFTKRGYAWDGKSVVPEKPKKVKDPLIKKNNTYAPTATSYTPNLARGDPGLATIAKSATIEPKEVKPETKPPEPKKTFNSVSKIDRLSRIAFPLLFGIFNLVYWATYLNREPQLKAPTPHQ
# Sequence (P63138 25-474 partner limits assumed): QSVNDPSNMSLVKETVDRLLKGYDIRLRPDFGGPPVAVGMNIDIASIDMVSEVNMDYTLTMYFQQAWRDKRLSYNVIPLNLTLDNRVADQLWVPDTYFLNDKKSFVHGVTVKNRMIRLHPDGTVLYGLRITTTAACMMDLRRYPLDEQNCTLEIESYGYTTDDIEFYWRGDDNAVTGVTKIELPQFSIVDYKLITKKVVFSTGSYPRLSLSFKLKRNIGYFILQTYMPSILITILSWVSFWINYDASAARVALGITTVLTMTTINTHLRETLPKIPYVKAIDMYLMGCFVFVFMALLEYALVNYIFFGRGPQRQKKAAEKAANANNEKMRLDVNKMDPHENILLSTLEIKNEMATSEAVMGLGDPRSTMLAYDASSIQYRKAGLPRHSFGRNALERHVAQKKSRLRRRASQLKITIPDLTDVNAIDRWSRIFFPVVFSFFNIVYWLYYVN
# Sequence (P18508 39-466): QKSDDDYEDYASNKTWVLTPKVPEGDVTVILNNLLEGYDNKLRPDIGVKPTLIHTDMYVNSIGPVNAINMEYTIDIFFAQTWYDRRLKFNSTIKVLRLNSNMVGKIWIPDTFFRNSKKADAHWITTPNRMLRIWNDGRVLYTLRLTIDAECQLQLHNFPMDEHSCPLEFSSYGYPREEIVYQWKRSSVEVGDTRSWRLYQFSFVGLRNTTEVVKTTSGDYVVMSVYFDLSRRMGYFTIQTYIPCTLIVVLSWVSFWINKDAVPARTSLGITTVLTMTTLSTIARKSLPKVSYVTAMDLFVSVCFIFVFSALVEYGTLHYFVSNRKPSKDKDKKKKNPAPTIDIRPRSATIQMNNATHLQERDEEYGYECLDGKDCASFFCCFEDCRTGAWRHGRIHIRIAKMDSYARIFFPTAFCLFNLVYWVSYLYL
# assay procedure: Stimulation of GABA (EC3-5)-elicited currents in Xenopus oocytes, two-electrode voltage clamp, α1β2γ2
# condition context: α1β2γ2; GABA EC3-5; mean±SD of individually fitted curves; read-out: Potency
readout name: EC50

Tell me reported EC50 for `CN(C)Cc1nc(-c2ncn3c2CN(C)C(=O)c2c(Cl)cccc2-3)no1` , tested with rat GABAA receptors α1β2γ2 (Rattus norvegicus, UniProt P18508+P62813).
18 nM

Values were extracted from patent US20090054412A1.
